- Tested on: Candida albicans
- protocol description: Antifungal activity against Candida albicans assessed as growth inhibition by serial dilution method
- Format: functional
observation type: MIC (mg/L)

INSERT INTO assay_data (structure_smiles, observation_type, prefix_operator, quantitative_result) VALUES
  ('COc1ccc(OC)c(S(=O)(=O)n2c(COc3ccc([N+](=O)[O-])cc3)nc3cc(Br)ccc32)c1', 'MIC', '=', 128),
  ('Cc1cccc(S(=O)(=O)n2c(COc3ccc([N+](=O)[O-])cc3)nc3cc(Br)ccc32)c1', 'MIC', '=', 64),
  ('COc1ccc(S(=O)(=O)n2c(COc3ccc([N+](=O)[O-])cc3)nc3ccc(Br)cc32)c(OC)c1', 'MIC', '>', 256),
  ('O=[N+]([O-])c1ccc(OCc2nc3cc(Br)ccc3n2S(=O)(=O)c2ccc(Cl)cc2Cl)cc1', 'MIC', '=', 128),
  ('Cc1c(F)cccc1S(=O)(=O)n1c(COc2ccc([N+](=O)[O-])cc2)nc2cc(Br)ccc21', 'MIC', '=', 128),
  ('O=[N+]([O-])c1ccc(OCc2nc3cc(Br)ccc3n2S(=O)(=O)c2ccccc2Cl)cc1', 'MIC', '=', 8),
  ('O=[N+]([O-])c1ccc(OCc2nc3ccc(Br)cc3n2S(=O)(=O)c2ccccc2Cl)cc1', 'MIC', '=', 128),
  ('O=[N+]([O-])c1ccc(OCc2nc3cc(Br)ccc3n2S(=O)(=O)c2cc(Cl)ccc2Cl)cc1', 'MIC', '=', 64),
  ('N#Cc1cccc(S(=O)(=O)n2c(COc3ccc([N+](=O)[O-])cc3)nc3cc(Br)ccc32)c1', 'MIC', '=', 64),
  ('Nc1ccc(OCc2nc3cc(Br)ccc3[nH]2)cc1', 'MIC', '=', 64);
